target: human ΔF508-CFTR (Homo sapiens, UniProt P13569, DEL508-508); construct: expressed in transfected cells; assay: CFTR-YFP High Throughput Assay (HTS YFP flux assay, corrector / potentiator protocols); format: cell-based; conditions: FRT cells stably expressing human ΔF508-CFTR and YFP-H148Q/I152L; normalized to positive control; read-out: Emax (% Efficacy, EMax normalized to the positive control)
Sequence (P13569 with tags, fused parts or gaps DEL508-508): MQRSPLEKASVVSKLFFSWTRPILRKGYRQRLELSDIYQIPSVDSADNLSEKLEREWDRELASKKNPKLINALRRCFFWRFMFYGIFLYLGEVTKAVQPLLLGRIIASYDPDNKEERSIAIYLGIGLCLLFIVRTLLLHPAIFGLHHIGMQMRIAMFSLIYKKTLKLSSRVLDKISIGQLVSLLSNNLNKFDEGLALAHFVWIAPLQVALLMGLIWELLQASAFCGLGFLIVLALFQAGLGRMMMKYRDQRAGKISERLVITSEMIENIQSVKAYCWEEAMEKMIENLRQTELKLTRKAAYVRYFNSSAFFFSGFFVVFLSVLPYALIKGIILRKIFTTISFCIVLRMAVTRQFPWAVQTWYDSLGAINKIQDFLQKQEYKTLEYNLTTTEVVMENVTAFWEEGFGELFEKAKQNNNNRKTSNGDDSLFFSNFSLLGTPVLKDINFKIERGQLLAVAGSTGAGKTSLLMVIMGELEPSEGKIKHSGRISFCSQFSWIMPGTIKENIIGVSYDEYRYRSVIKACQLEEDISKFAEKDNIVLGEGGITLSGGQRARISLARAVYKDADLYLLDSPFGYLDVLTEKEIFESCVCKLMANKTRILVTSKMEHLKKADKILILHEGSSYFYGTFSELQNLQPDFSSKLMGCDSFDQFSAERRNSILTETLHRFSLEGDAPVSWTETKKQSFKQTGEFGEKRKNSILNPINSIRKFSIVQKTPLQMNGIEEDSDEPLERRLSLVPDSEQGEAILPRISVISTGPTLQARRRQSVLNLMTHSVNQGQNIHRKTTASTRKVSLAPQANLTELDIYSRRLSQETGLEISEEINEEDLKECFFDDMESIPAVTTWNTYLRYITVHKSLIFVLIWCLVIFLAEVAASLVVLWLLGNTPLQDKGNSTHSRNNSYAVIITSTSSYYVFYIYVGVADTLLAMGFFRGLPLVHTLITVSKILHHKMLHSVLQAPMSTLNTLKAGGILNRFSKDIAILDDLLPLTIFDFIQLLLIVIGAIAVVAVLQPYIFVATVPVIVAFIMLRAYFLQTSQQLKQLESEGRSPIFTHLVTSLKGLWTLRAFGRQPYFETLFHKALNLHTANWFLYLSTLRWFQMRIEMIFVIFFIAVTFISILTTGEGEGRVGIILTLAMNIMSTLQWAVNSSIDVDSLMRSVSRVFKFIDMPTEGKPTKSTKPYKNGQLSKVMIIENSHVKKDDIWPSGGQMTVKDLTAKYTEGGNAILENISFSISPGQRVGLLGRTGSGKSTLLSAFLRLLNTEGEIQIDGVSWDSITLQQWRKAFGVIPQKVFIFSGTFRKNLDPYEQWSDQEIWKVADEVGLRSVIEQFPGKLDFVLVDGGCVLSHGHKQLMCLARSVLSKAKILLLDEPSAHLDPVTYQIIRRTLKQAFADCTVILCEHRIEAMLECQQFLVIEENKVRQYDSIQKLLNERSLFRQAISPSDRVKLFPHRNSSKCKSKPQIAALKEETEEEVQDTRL
property_measured: Emax

Please review the entries below; each comes with its answer.
> print(dat)
                                   compound  reported.value
1  CCN(CC)S(=O)(=O)c1ccc2nnc(NC3CCc4ccccc4C3)n2c1 (stereo not drawn)       40 to 80%
2  O=S(=O)(c1ccccc1)c1ccc2nc(NCCC3CCCCC3)nn2c1           > 80%
3  CCN(CC)S(=O)(=O)c1ccc2nnc(NC3Cc4ccccc4C3)n2c1           > 80%
4  CCC(Nc1nnc2ccc(S(=O)(=O)N(CC)CC)cn12)c1ccccc1 (stereo not drawn)           > 80%
5  O=C(CNc1nc2ccc(S(=O)(=O)c3ccccc3)cn2n1)C1CCCCC1           > 80%

Dear colleague, could you please provide Emax for the compounds listed below?
1. CCN(CC)S(=O)(=O)c1ccc2nnc(NCc3ccc(OC(C)C)cc3)n2c1
2. CCN(CC)S(=O)(=O)c1ccc2nnc(NCCC(C)C)n2c1
3. CCN(CC)S(=O)(=O)c1ccc2nnc(NCc3cccnc3)n2c1

Result ::
["> 80%", "> 80%", "40 to 80%"]

Query :: Give Emax for CCN(CC)S(=O)(=O)c1ccc2nnc(N[C@@H](c3ccccc3)C(C)C)n2c1 tested on human ΔF508-CFTR (Homo sapiens, UniProt P13569, DEL508-508).
Result :: > 80%
